system_under_test: AChE (Rattus norvegicus, UniProt P37136)
Construct: the use of crude homogenised from rat’s brain structures, as used in the present work; from tissue; host or cells: Wistar rat cerebral cortex, homogenate supernatant
Sequence (P37136 32-614): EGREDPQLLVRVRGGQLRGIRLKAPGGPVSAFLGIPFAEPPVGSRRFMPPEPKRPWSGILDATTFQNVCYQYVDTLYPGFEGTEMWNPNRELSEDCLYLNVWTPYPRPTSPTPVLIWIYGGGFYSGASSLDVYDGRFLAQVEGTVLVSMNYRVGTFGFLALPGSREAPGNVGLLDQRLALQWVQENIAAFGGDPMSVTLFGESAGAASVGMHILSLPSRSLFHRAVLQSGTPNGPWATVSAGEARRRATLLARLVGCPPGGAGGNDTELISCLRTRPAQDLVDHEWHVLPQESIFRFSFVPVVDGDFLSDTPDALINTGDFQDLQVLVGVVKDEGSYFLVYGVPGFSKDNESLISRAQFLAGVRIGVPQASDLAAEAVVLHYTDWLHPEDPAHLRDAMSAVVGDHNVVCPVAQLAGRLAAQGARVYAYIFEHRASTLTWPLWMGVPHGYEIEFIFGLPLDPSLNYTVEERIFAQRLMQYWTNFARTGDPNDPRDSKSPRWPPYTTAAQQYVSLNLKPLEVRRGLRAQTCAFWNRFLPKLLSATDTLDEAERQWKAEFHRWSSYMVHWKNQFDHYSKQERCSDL
assay_remarks: In vitro AChE activity (Ellman method) in cerebral cortex homogenate
Assay type: biochemical
assay_context: rat cerebral cortex homogenate; calculated with GraphPad Prism 5; read-out: IC50 of AChE inhibition, Cortex
pIC50: −log10 of the molar value.
Property: pIC50; scope: individual molecules
measure: pIC50

>>> df
                                    molecule  limit_operator  value_measured
 0  O=C1CCSC(c2ccccc2)N1CCN1CCCC1 (centres unmarked) [6a]               =            5.13
 1  O=C1CSC(c2ccc([N+](=O)[O-])cc2)N1CCN1CCCC1 (centres unmarked) [5j]               =            4.55
 2  O=C1CSC(c2cccc(O)c2)N1CCN1CCCC1 (centres unmarked) [5o]               =            4.56
 3  COc1ccc(C2SCC(=O)N2CCN2CCCC2)cc1 (centres unmarked) [5n]               <            3.60
 4  O=C1CCSC(c2ccc(Cl)cc2)N1CCN1CCCC1 (centres unmarked) [6g]               =            4.24
 5  Cc1ccc(C2SCCC(=O)N2CCN2CCCC2)cc1 (centres unmarked) [6k]               =            5.17
 6  COc1ccc(C2SCCC(=O)N2CCN2CCCC2)cc1 (centres unmarked) [6n]               =            4.65
 7  O=C1CSC(c2cccc([N+](=O)[O-])c2)N1CCN1CCCC1 (centres unmarked) [5i]               =            4.99
 8  O=C1CCSC(c2ccc([N+](=O)[O-])cc2)N1CCN1CCCC1 (centres unmarked) [6j]               =            4.40
 9  O=C1CCSC(c2cccc(O)c2)N1CCN1CCCC1 (centres unmarked) [6o]               =            4.59
10  O=C1CCSC(c2cccc([N+](=O)[O-])c2)N1CCN1CCCC1 (centres unmarked) [6i]               =            4.30

----------
List of concentration from which AChE activity was inhibited, cerebral cortex values.
system_under_test: AChE (Rattus norvegicus)
Construct: the use of crude homogenised from rat’s brain structures, as used in the present work; from tissue; host or cells: Wistar rat cerebral cortex, homogenate supernatant
assay_remarks: In vitro AChE activity (Ellman method) in cerebral cortex homogenate
Format: biochemical
assay_context: vs control group (water and methanol), p < .05; tested 0.1-250 μM
measure: concentration from which AChE activity was inhibited, cerebral cortex

                                   compound  value_measured
0  O=C1CCSC(c2ccc([N+](=O)[O-])cc2)N1CCN1CCCC1 (stereo not shown) [6j]         ≥ 10 µM
1  COc1cccc(C2SCCC(=O)N2CCN2CCCC2)c1 (stereo not shown) [6m]         ≥ 25 µM
2  Cc1ccc(C2SCCC(=O)N2CCN2CCCC2)cc1 (stereo not shown) [6k]          ≥ 5 µM
3  O=C1CSC(c2cccc([N+](=O)[O-])c2)N1CCN1CCCC1 (stereo not shown) [5i]         ≥ 10 µM
4  O=C1CCSC(c2cccc([N+](=O)[O-])c2)N1CCN1CCCC1 (stereo not shown) [6i]         ≥ 50 µM
5  O=C1CSC(c2ccc([N+](=O)[O-])cc2)N1CCN1CCCC1 (stereo not shown) [5j]          ≥ 1 µM
6  COc1ccc(C2SCCC(=O)N2CCN2CCCC2)cc1 (stereo not shown) [6n]          ≥ 5 µM
7  O=C1CCSC(c2ccccc2)N1CCN1CCCC1 (stereo not shown) [6a]          ≥ 5 µM
8  O=C1CCSC(c2ccccc2[N+](=O)[O-])N1CCN1CCCC1 (stereo not shown) [6h]          ≥ 1 µM
9  O=C1CCSC(c2cccc(O)c2)N1CCN1CCCC1 (stereo not shown) [6o]         ≥ 25 µM

Data provenance: paper PMC6818106
